MEASUREMENT PROTOCOL: Pharmacokinetics and plasma concentration of Example 101 in Lewis rats after oral administration (CIA study)
Format: in vivo, Lewis rat
EXPERIMENTAL CONTEXT: Lewis, rat, plasma, po, 10 mg/kg, Lewis rats, oral, 10 mg/kg, day 20, mean
PROPERTY LABEL: AUC(0-t) (ng·h/mL)

# COMPOUND, NUMBER
records = [
    ("CNC(=O)c1[nH]c(C(=O)NC2CCC2)cc1O[C@@H](C)c1ccccc1 (stereo in doubt)", 10600),
]

---

MEASUREMENT PROTOCOL: Pharmacokinetics and plasma concentration of Example 101 in Lewis rats after oral administration (CIA study)
Type: in vivo, Lewis rat
EXPERIMENTAL CONTEXT: Lewis, rat, plasma, oral, 10 mg/kg, oral, day 0, 10 mg/kg, 12 h, per test subject; read-out: Plasma concentration

# COMPOUND, concentration at 12 h
rows = [
    ("CNC(=O)c1[nH]c(C(=O)NC2CCC2)cc1O[C@@H](C)c1ccccc1 (stereo in doubt) [Example 101]", "0.772 µg/mL"),
]

---

MEASUREMENT PROTOCOL: Plasma stability assay, rat plasma
Assay type: in vitro ADME
EXPERIMENTAL CONTEXT: Method 2 (10 μM)
So basically, if Plasma Stability (% remaining at 120 minutes), Rat comes in under 80% it's Condition met, and if it's 80% or more it's Condition not met.

# COMPOUND, GROUP LABEL
data = [
    ("CCNC(=O)c1cc(OC(C)c2ccc(Br)cc2)c(C(=O)NC)[nH]1 (single isomer, unassigned)", "Condition not met"),
    ("CNC(=O)c1[nH]c(C(=O)NC2CCC2)cc1OC(C)c1ccc(Cl)cc1F (single isomer, unassigned)", "Condition met"),
    ("CNC(=O)c1[nH]c(C(=O)NCC(F)(F)F)cc1O[C@@H](C)c1ccccc1", "Condition not met"),
    ("C#Cc1ccc(C(C)Oc2cc(C(=O)NCC)[nH]c2C(=O)NC)cc1 (single isomer, unassigned)", "Condition not met"),
    ("CNC(=O)c1[nH]c(-c2ncc(C)[nH]2)cc1O[C@@H](C)c1ccc(Cl)cc1", "Condition not met"),
    ("CCNC(=O)c1[nH]c(C(=O)NC)c(O[C@@H](C)c2ccccc2F)c1Br", "Condition met"),
    ("CCNC(=O)c1cc(OC(c2ccccc2)c2ccccc2)c(C(=O)NC)[nH]1", "Condition not met"),
    ("CNC(=O)c1[nH]c(C(=O)N[C@H]2CC[C@H](O)CC2)cc1OC(C)c1ccccc1F (single isomer, unassigned)", "Condition not met"),
    ("CNC(=O)c1[nH]c(C(=O)NC2CCC2)cc1OC(C)c1ccc(Cl)cc1 (single isomer, unassigned)", "Condition met"),
    ("CNC(=O)c1[nH]c(-c2ncc(C)[nH]2)cc1O[C@@H](C)c1ccccc1F", "Condition met"),
    ("CNC(=O)c1[nH]c(C(=O)NC2CCC2)cc1OC(C)c1ccccc1F (single isomer, unassigned)", "Condition met"),
    ("CNC(=O)c1[nH]c(C(=O)NC2COC2)cc1OC(C)c1ccc(Cl)cc1F (single isomer, unassigned)", "Condition not met"),
]

---

MEASUREMENT PROTOCOL: Beagle dog PK study 1 of Example 101 (propylene glycol-based formulation, IV and PO), with clinical observations
Format: in vivo
EXPERIMENTAL CONTEXT: beagle, dog, plasma, iv, 1 mg/kg, dog PK study 1, IV, 4 h, Test Animal 1; read-out: Plasma concentration
PROPERTY LABEL: concentration at 4 h (ng/mL)

# MOLECULE, NUMBER
measured = [
    ("CNC(=O)c1[nH]c(C(=O)NC2CCC2)cc1O[C@@H](C)c1ccccc1 (stereo in doubt)", 81.6),
]

---

MEASUREMENT PROTOCOL: Beagle dog PK study 2 of Example 101 (HPβCD based formulation, IV), with clinical observations
Assay type: in vivo
EXPERIMENTAL CONTEXT: beagle, dog, plasma, iv, 1 mg/kg, dog PK study 2, IV 1 mg/kg, HPβCD, Test Animal 2

# MOLECULE, half-life
rows = [
    ("CNC(=O)c1[nH]c(C(=O)NC2CCC2)cc1O[C@@H](C)c1ccccc1 (stereo in doubt)", "1.41 h"),
]

---

MEASUREMENT PROTOCOL: Beagle dog PK study 1 of Example 101 (propylene glycol-based formulation, IV and PO), with clinical observations
Format: in vivo
EXPERIMENTAL CONTEXT: beagle, dog, plasma, iv, 1 mg/kg, dog PK study 1, IV, 0.5 h, Test Animal 3; read-out: Plasma concentration

# COMPOUND, concentration at 0.5 h
records = [
    ("CNC(=O)c1[nH]c(C(=O)NC2CCC2)cc1O[C@@H](C)c1ccccc1 (stereo in doubt) [Example 101]", "867 ng/mL"),
]

---

SYSTEM TESTED: BRD4 BD2 (Homo sapiens (Human), UniProt O60885)
MEASUREMENT PROTOCOL: NanoBRET bromodomain assay, NanoLuc-BRD4-BD2 fusion in HEK293 cells;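 note: tracer displacement BRET read in transfected cells after 2 h compound exposure at 37 °C, signal in milliBRET units corrected against no-tracer background wells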
EXPERIMENTAL CONTEXT: IC50 for BRD4 BD1 divided by IC50 for BRD4 BD2; qualitative if an IC50 is at the upper limit

# COMPOUND, Fold selectivity
records = [
    ("CNC(=O)c1[nH]c(C(=O)N[C@H]2CC[C@H](O)CC2)cc1OC(C)c1ccccc1F (single isomer, unassigned) [Example 45]", "XX (Fold >50 and ≤200)"),
    ("CCNC(=O)c1cc(OC(C)c2ccccc2F)c(C(=O)NC)[nH]1 (single isomer, unassigned) [Example 21]", "— (Fold ≥0 and ≤2)"),
    ("CCNC(=O)c1cc(OC(CCOC)c2ccccc2)c(C(=O)NC)[nH]1 (racemic) [Example 8]", "— (Fold ≥0 and ≤2)"),
    ("CNC(=O)c1[nH]c(-c2cnn(C(C)C)c2)cc1O[C@@H](C)c1ccccc1 [Example 80]", "XXX (Fold >200)"),
    ("CCNC(=O)c1cc(OC(C)c2c(Cl)cccc2Cl)c(C(=O)NC)[nH]1 (single isomer, unassigned) [Example 66]", "— (Fold ≥0 and ≤2)"),
    ("CNC(=O)c1[nH]c(C(=O)NC(C)C)cc1O[C@@H](C)c1ccccc1F [Example 58]", "XX (Fold >50 and ≤200)"),
    ("CNC(=O)c1[nH]c(C(=O)N[C@H]2CC[C@H](O)CC2)cc1O[C@@H](C)c1ccnnc1 (single isomer, unassigned) [Example 94]", "— (Fold ≥0 and ≤2)"),
    ("CNC(=O)c1[nH]c(C(=O)N[C@H]2CC[C@H](O)CC2)cc1O[C@@H](C)c1ccnnc1 (single isomer, unassigned) [Example 93]", "— (Fold ≥0 and ≤2)"),
    ("CNC(=O)c1[nH]c(-c2ncc[nH]2)cc1O[C@@H](C)c1ccccc1 [Example 89]", "XX (Fold >50 and ≤200)"),
    ("CCNC(=O)c1cc(OC(COC)c2ccccc2)c(C(=O)NC)[nH]1 (racemic) [Example 10]", "— (Fold ≥0 and ≤2)"),
    ("CNC(=O)c1[nH]c(-c2nc(C)c(C)[nH]2)cc1O[C@@H](C)c1ccccc1 [Example 87]", "XX (Fold >50 and ≤200)"),
    ("CNC(=O)c1[nH]c(-c2ncc(C)[nH]2)cc1O[C@@H](C)c1ccc(Cl)cc1 [Example 69]", "XXX (Fold >200)"),
    ("CCNC(=O)c1cc(OC(C)c2ccc(I)cc2)c(C(=O)NC)[nH]1 (single isomer, unassigned) [Example 52]", "— (Fold ≥0 and ≤2)"),
    ("CCNC(=O)c1[nH]c(C(=O)NC)c(O[C@@H](C)c2ccccc2F)c1Br [Example 72]", "— (Fold ≥0 and ≤2)"),
]

---

MEASUREMENT PROTOCOL: Beagle dog PK study 1 of Example 101 (propylene glycol-based formulation, IV and PO), with clinical observations
Format: in vivo
EXPERIMENTAL CONTEXT: beagle, dog, plasma, iv, 1 mg/kg, dog PK study 1, IV, 0.083 h, mean; read-out: Average plasma concentration, Mean
Experimental: The purpose of this study was to examine the pharmacokinetics of Example 101 in beagle dogs. […] An oral PK study was also undertaken in Lewis rats—see Experimental Method C. Body weight was recoded prior to dosing, and detailed clinical observations were made prior to dosing and throughout the study, as needed. Subsequently, 17.320 mL Vitamin E TPGS was added, and the solution was vortexed and sonicated. Then, 51.960 mL water was added, and solution was then heated. […]
PROPERTY LABEL: concentration at 0.083 h (ng/mL)

# COMPOUND, NUMBER
measured = [
    ("CNC(=O)c1[nH]c(C(=O)NC2CCC2)cc1O[C@@H](C)c1ccccc1 (stereo in doubt)", 1340),
]
